experiment: Plasma pharmacokinetics in pig (release of R-100 from R-107), LCMS; format: in vivo; details: plasma, oral, capsule per os of neat R-107 88 mg/kg, 3 hrs post dose

Compound | concentration at 3 h (ng/mL)
CC(=O)ON1C(C)(C)CC(CO[N+](=O)[O-])C1(C)C (stereo not shown) [R-107] | 0.11

----------
assay: Plasma pharmacokinetics in pig (release of R-100 from R-107), LCMS; assay type: in vivo; details: plasma, IV R-107 diluted in 4 parts of PEG400, 18 mg/kg over 6 minutes, −0.08 hrs post dose
Recorded endpoint: concentration at -0.08 h (ng/mL)

Molecule | Measure unit | Observed
CC(=O)ON1C(C)(C)CC(CO[N+](=O)[O-])C1(C)C (stereo not shown) | ng/mL | 0
